Target: 5-hydroxytryptamine receptor 1B (Homo sapiens)
Sequence (P28222 whole entry): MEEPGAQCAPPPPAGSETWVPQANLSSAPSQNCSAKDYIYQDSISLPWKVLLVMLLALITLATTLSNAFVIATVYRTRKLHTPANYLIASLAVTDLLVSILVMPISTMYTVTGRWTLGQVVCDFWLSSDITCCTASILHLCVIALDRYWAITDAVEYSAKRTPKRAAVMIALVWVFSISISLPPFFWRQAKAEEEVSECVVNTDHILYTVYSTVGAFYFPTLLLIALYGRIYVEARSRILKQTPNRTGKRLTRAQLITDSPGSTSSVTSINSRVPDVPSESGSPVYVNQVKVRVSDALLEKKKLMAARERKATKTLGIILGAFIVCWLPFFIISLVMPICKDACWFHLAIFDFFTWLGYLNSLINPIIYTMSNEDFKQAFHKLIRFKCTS
Test: Displacement of [3H]-[…] from recombinant human 5-HT1B receptor after […] by Microbeta scintillation counting analysis
pKi: −log10 of the molar value.
measuredProperty: pKi

1) COc1cc2c3c(c1OCc1ccc(Br)cc1)-c1cc4c(cc1CC3N(C)CC2)OCO4 (stereo unspecified)
< 6.05

###

Target: Alpha-2B adrenergic receptor (Homo sapiens, UniProt P18089)
Sequence (P18089 whole entry): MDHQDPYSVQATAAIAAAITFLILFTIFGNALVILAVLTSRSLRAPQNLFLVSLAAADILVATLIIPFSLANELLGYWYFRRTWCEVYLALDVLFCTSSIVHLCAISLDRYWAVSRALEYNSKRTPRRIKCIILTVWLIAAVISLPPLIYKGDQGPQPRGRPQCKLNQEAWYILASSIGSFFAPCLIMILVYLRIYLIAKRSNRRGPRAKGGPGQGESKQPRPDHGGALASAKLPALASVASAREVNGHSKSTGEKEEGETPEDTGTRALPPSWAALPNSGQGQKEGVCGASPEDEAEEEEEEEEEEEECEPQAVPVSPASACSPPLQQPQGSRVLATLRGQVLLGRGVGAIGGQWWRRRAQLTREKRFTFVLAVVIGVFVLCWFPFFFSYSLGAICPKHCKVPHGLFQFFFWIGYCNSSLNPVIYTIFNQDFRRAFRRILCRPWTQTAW
Experiment: Displacement of [3H]-Clonidine from recombinant human adrenergic alpha2B receptor after […] by Microbeta scintillation counting analysis
measuredProperty: Ki

1) COc1cc2c3c(c1OCc1ccc(Br)cc1)-c1cc4c(cc1CC3N(C)CC2)OCO4 (stereo unspecified)
> 900 nM

###

Target: 5-hydroxytryptamine receptor 2B (Homo sapiens, UniProt P41595)
Sequence (P41595 whole entry): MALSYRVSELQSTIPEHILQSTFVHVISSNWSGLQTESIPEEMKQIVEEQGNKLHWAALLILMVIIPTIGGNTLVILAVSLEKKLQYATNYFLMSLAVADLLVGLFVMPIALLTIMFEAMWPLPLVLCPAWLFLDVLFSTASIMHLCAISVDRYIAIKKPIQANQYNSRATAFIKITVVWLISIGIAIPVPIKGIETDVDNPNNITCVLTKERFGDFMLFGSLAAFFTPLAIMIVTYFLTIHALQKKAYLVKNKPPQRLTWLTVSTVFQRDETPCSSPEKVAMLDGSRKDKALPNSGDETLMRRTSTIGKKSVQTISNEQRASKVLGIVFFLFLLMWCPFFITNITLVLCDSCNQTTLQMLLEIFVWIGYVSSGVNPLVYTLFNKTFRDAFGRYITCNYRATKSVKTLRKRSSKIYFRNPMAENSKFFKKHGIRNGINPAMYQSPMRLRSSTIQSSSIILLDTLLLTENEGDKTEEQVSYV
Assay: Displacement of [3H]-LSD from recombinant human 5-HT2B receptor after […] by Microbeta scintillation counting analysis
measuredProperty: Ki

1. COc1cc2c3c(c1OCc1ccc(Br)cc1)-c1cc4c(cc1CC3N(C)CC2)OCO4 (stereo unspecified)
> 900 nM

###

Biological target: Alpha-2C adrenergic receptor (Homo sapiens)
Sequence (P18825 whole entry): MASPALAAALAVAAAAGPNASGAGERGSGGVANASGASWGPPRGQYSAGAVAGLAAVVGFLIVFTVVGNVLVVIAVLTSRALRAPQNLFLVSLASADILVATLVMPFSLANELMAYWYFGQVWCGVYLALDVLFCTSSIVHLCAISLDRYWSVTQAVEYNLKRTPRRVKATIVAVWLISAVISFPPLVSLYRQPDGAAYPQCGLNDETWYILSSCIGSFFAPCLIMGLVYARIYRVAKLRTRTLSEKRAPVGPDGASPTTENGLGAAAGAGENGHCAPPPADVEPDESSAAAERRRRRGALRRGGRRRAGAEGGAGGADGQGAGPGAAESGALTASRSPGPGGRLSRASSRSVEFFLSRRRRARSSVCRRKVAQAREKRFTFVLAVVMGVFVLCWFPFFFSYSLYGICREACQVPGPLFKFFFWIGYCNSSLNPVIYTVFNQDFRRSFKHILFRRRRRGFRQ
Assay: Displacement of [3H]-Clonidine from recombinant human adrenergic alpha2C receptor after […] by Microbeta scintillation counting analysis
pKi: −log10 of the molar value.
measuredProperty: pKi

1. COc1cc2c3c(c1OCc1ccc(Br)cc1)-c1cc4c(cc1CC3N(C)CC2)OCO4 (stereo unspecified)
< 6.05

###

Target: 5-hydroxytryptamine receptor 3A (Homo sapiens)
Sequence (P46098 whole entry): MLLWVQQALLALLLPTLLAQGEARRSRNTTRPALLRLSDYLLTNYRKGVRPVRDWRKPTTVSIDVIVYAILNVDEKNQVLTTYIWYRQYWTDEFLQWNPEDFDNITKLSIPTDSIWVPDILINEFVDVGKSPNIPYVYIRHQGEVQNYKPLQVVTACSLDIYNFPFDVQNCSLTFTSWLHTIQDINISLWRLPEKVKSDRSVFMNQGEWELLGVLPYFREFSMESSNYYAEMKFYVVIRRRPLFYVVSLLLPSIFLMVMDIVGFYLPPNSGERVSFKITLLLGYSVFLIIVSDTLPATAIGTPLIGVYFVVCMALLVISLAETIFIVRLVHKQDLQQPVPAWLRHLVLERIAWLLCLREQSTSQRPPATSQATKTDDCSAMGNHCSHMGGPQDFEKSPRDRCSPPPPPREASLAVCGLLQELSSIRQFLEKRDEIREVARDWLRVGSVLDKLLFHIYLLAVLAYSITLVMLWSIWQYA
Test: Displacement of [3H]-LY278584 from recombinant human 5-HT3 receptor after […] by Microbeta scintillation counting analysis
pKi: −log10 of the molar value.
measuredProperty: pKi

1. COc1cc2c3c(c1OCc1ccc(Br)cc1)-c1cc4c(cc1CC3N(C)CC2)OCO4 (stereo unspecified)
< 6.05

###

Target: 5-hydroxytryptamine receptor 1D (Homo sapiens, UniProt P28221)
Sequence (P28221 whole entry): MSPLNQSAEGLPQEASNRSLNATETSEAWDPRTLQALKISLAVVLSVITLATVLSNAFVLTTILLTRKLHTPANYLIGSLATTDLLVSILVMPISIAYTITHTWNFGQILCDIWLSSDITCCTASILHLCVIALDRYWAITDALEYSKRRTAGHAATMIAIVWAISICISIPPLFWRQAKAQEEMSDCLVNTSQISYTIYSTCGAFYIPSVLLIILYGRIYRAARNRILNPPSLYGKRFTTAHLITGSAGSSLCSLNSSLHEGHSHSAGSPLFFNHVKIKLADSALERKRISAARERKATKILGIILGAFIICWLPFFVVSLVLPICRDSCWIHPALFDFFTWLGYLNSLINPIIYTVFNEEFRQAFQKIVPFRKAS
Assay: Displacement of [3H]-[…] from recombinant human 5-HT1D receptor after […] by Microbeta scintillation counting analysis
pKi: −log10 of the molar value.
measuredProperty: pKi

1) COc1cc2c3c(c1OCc1ccc(Br)cc1)-c1cc4c(cc1CC3N(C)CC2)OCO4 (stereo unspecified)
< 6.05

###

Target: Sigma 2 receptor
Assay: Displacement of [3H]-DTG from recombinant human sigma-2 receptor after […] by Microbeta scintillation counting analysis
pKi: −log10 of the molar value.
measuredProperty: pKi

1. COc1cc2c3c(c1OCc1ccc(Br)cc1)-c1cc4c(cc1CC3N(C)CC2)OCO4 (stereo unspecified)
< 6.52

###

Biological target: Histamine H2 receptor (Homo sapiens, UniProt P25021)
Sequence (P25021 whole entry): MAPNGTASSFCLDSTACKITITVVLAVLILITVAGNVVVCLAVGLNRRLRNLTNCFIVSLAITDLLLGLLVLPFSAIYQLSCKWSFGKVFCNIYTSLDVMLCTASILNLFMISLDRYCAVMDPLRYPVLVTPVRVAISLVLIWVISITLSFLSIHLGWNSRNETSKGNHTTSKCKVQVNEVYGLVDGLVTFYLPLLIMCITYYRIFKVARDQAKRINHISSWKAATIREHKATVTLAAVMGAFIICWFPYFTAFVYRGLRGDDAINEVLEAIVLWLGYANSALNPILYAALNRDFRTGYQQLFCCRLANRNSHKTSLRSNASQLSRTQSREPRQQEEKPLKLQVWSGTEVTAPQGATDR
Assay: Displacement of [3H]-Tiotidine from recombinant human histamine H2 receptor after […] by Microbeta scintillation counting analysis
pKi: −log10 of the molar value.
measuredProperty: pKi

1. COc1cc2c3c(c1OCc1ccc(Br)cc1)-c1cc4c(cc1CC3N(C)CC2)OCO4 (stereo unspecified)
< 6.05

###

Biological target: 5-hydroxytryptamine receptor 7 (Homo sapiens)
Sequence (P34969 whole entry): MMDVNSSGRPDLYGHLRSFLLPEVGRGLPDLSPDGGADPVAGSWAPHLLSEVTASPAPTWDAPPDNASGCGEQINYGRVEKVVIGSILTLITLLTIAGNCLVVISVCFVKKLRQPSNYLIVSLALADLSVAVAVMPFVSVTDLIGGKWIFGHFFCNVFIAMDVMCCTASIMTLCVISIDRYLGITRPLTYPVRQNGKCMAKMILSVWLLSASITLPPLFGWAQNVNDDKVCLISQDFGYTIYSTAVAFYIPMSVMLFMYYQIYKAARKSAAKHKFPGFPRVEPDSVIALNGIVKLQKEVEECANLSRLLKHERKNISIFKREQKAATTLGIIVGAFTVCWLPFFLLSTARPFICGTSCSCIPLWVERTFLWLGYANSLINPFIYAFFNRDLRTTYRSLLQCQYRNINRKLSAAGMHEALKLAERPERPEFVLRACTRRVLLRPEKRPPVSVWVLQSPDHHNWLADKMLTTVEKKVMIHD
Experiment: Displacement of [3H]-LSD from recombinant human 5-HT7 receptor after […] by Microbeta scintillation counting analysis
measuredProperty: Ki

1. COc1cc2c3c(c1OCc1ccc(Br)cc1)-c1cc4c(cc1CC3N(C)CC2)OCO4 (stereo unspecified)
> 900 nM

###

Biological target: D(3) dopamine receptor (Homo sapiens, UniProt P35462)
Sequence (P35462 whole entry): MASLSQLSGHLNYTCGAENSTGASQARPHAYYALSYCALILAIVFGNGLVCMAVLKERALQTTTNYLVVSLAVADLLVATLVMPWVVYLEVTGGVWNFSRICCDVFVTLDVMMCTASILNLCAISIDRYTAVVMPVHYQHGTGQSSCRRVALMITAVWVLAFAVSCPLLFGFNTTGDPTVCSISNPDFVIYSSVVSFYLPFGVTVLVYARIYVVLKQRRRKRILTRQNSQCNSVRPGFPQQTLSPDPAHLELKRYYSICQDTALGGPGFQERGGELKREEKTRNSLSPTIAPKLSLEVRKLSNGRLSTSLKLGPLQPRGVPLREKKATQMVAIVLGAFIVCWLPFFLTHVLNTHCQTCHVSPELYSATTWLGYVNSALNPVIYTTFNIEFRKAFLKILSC
Assay: Displacement of [3H]-N-methylspiperone from recombinant human dopamine D3 receptor after […] by Microbeta scintillation counting analysis
measuredProperty: Ki

1) COc1cc2c3c(c1OCc1ccc(Br)cc1)-c1cc4c(cc1CC3N(C)CC2)OCO4 (stereo unspecified)
> 900 nM

###

Target: Muscarinic acetylcholine receptor M5 (Homo sapiens)
Sequence (P08912 whole entry): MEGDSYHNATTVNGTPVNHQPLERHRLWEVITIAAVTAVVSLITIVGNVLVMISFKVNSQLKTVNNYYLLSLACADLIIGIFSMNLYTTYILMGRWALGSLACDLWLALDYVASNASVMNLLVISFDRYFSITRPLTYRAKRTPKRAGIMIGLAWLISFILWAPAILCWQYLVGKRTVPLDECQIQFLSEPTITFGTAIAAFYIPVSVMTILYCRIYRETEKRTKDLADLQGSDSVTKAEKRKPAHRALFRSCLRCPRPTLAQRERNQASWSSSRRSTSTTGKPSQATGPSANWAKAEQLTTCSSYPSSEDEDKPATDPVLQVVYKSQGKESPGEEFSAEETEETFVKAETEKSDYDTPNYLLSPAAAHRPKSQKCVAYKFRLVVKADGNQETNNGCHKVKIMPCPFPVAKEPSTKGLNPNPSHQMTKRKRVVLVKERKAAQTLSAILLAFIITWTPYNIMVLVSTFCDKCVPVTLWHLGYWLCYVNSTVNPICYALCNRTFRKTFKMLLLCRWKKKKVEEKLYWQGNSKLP
Experiment: Displacement of [3H]-Tiotidine from recombinant human muscarinic M5 receptor after […] by Microbeta scintillation counting analysis
measuredProperty: Ki

1. COc1cc2c3c(c1OCc1ccc(Br)cc1)-c1cc4c(cc1CC3N(C)CC2)OCO4 (stereo unspecified)
> 900 nM

###

Target: 5-hydroxytryptamine receptor 1E (Homo sapiens, UniProt P28566)
Sequence (P28566 whole entry): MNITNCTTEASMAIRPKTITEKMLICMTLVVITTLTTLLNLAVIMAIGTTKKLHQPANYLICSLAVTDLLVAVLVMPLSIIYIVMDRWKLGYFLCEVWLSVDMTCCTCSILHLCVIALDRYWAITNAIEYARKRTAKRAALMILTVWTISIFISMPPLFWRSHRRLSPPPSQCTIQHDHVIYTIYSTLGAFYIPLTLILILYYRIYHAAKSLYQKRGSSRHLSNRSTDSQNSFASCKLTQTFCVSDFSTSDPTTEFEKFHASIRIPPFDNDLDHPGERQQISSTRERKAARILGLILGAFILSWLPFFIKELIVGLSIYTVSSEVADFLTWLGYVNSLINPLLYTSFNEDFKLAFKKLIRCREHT
Experiment: Displacement of [3H]-5-HT from recombinant human 5-HT1E receptor after […] by Microbeta scintillation counting analysis
measuredProperty: Ki

1) COc1cc2c3c(c1OCc1ccc(Br)cc1)-c1cc4c(cc1CC3N(C)CC2)OCO4 (stereo unspecified)
> 900 nM
